assay: first-order primary biodegradation rate constant k (sorption-corrected, fDis-corrected) (d-1); higher = faster biodegradation; details: river segment: Germany (DE) T_Contam; incubation temperature 24 °C
If the reported first-order primary biodegradation rate constant k equals or exceeds 0.3, assign 1.0. If not, assign 0.0.

Solved entries (count: 5):
>  <COMPOUND>
CC[C@@H](C(N)=O)N1CCCC1=O

>  <ASSIGNED LABEL>
1.0

$$$$
>  <COMPOUND>
Cc1cc(Cl)ccc1OC(C)C(=O)O (stereo not drawn)

>  <ASSIGNED LABEL>
0.0

$$$$
>  <COMPOUND>
Cc1cc(C)nc(NS(=O)(=O)c2ccc(N)cc2)n1

>  <ASSIGNED LABEL>
1.0

$$$$
>  <COMPOUND>
CN(C)C(=N)NC(=N)N

>  <ASSIGNED LABEL>
0.0

$$$$
>  <COMPOUND>
CN(C)CCCC1(c2ccc(F)cc2)OCc2cc(C#N)ccc21 (stereo not drawn)

>  <ASSIGNED LABEL>
1.0

$$$$

Now take the following compound into account.
Hi, just wondering whether Cc1ccc(S(=O)(=O)O)cc1 shows first-order primary biodegradation rate constant k of 0.3 or higher.
1.0

###

assay: first-order primary biodegradation rate constant k (sorption-corrected, fDis-corrected) (d-1); higher = faster biodegradation; conditions: river segment: Greece (EL) G_Pris; incubation temperature 19 °C
ASSAY METRIC: first-order primary biodegradation rate constant k

Worked cases, first-order primary biodegradation rate constant k given:
>  <MOLECULE>
Cn1c(=O)c2c(ncn2C)n(C)c1=O

>  <VALUE OBSERVED>
0.0394

$$$$
>  <MOLECULE>
CC1(C)C[C@@H]1C(=O)N/C(=C\CCCCSC[C@H](N)C(=O)O)C(=O)O

>  <VALUE OBSERVED>
22

$$$$
>  <MOLECULE>
Cc1ccc(NC(=O)N(C)C)cc1Cl

>  <VALUE OBSERVED>
0.423

$$$$
>  <MOLECULE>
CC(=O)Nc1ccc(O)cc1

>  <VALUE OBSERVED>
0.888

$$$$

Return reported first-order primary biodegradation rate constant k; argument: C/C(=N\C#N)N(C)Cc1ccc(Cl)nc1
0.125

How about CCc1cccc(CC)c1N(COC)C(=O)CCl ?
0.387

How about c1ccc2[nH]nnc2c1 ?
0.0923

How about CC1(C(=O)Nc2ccc(O)c(Cl)c2Cl)CCCCC1 ?
0.641

###

assay: first-order primary biodegradation rate constant k (sorption-corrected, fDis-corrected) (d-1); higher = faster biodegradation; conditions: river segment: Switzerland (CH) R_Contam; incubation temperature 17 °C
If the reported first-order primary biodegradation rate constant k equals or exceeds 0.1, assign T. If not, assign F.

Solved entries (count: 5):
>  <MOLECULE>
C#CCN(C)Cc1ccccc1

>  <ASSIGNED LABEL>
T

$$$$
>  <MOLECULE>
CCCCC(CC)COCC(O)CO (stereo unspecified)

>  <ASSIGNED LABEL>
T

$$$$
>  <MOLECULE>
CCCCc1nc(Cl)c(CO)n1Cc1ccc(-c2ccccc2-c2nnn[nH]2)cc1

>  <ASSIGNED LABEL>
T

$$$$
>  <MOLECULE>
CCOc1ccccc1OCCN[C@H](C)Cc1ccc(OC)c(S(N)(=O)=O)c1

>  <ASSIGNED LABEL>
F

$$$$
>  <MOLECULE>
C/C(=N\C#N)N(C)Cc1ccc(Cl)nc1

>  <ASSIGNED LABEL>
T

$$$$

Now take the following molecule into account.
Hi, just wondering whether Cc1cc(Cl)ccc1OC(C)C(=O)O (stereo unspecified) shows first-order primary biodegradation rate constant k of 0.1 or higher.
T

###

test: first-order primary biodegradation rate constant k (sorption-corrected, fDis-corrected) (d-1); higher = faster biodegradation; settings: river segment: Germany (DE) H_Contam; incubation temperature 24 °C
If the reported first-order primary biodegradation rate constant k equals or exceeds 0.06, assign condition met. If not, assign condition not met.

Solved entries (count: 5):
>  <MOLECULE>
COc1ccc(NC(=O)N(C)C)cc1Cl

>  <ASSIGNED LABEL>
condition not met

$$$$
>  <MOLECULE>
CCCOC(=O)c1ccc(O)cc1

>  <ASSIGNED LABEL>
condition met

$$$$
>  <MOLECULE>
CN(C)CCCC1(c2ccc(F)cc2)OCc2cc(C#N)ccc21 (stereo not given)

>  <ASSIGNED LABEL>
condition not met

$$$$
>  <MOLECULE>
Cc1cc(C)nc(NS(=O)(=O)c2ccc(N)cc2)n1

>  <ASSIGNED LABEL>
condition met

$$$$
>  <MOLECULE>
Cc1ccc(-c2nc3ccc(C)cn3c2CC(=O)N(C)C)cc1

>  <ASSIGNED LABEL>
condition met

$$$$

Hi, just wondering whether CCOC(=O)C1CC(=O)C(=C(O)C2CC2)C(=O)C1 (stereo not given) shows first-order primary biodegradation rate constant k of 0.06 or higher.
condition not met

How about CNCCC(Oc1ccc(C(F)(F)F)cc1)c1ccccc1 (stereo not given) ?
condition met

How about CCCCC1=NC2(CCCC2)C(=O)N1Cc1ccc(-c2ccccc2-c2nnn[nH]2)cc1 ?
condition met

How about CC(C)(Oc1ccc(CCNC(=O)c2ccc(Cl)cc2)cc1)C(=O)O [Bezafibrate] ?
condition met

###

experiment: first-order primary biodegradation rate constant k (sorption-corrected, fDis-corrected) (d-1); higher = faster biodegradation; conditions: river segment: Spain (ES) C_Contam; incubation temperature 24 °C
Range-based classes on measured first-order primary biodegradation rate constant k: lo: < 0.02; mid: ≥ 0.02 and < 0.3; hi: ≥ 0.3

>  <MOLECULE>
Cc1ccc(-c2nc3ccc(C)cn3c2CC(=O)N(C)C)cc1

>  <ASSIGNED LABEL>
mid

$$$$
>  <MOLECULE>
CC1(C)C[C@@H]1C(=O)N/C(=C\CCCCSC[C@H](N)C(=O)O)C(=O)O

>  <ASSIGNED LABEL>
hi

$$$$
>  <MOLECULE>
O=C(NCC1CCCCN1)c1cc(OCC(F)(F)F)ccc1OCC(F)(F)F (stereo not given) [Flecainide]

>  <ASSIGNED LABEL>
hi

$$$$
>  <MOLECULE>
COC(=O)Nc1nc2ccccc2[nH]1

>  <ASSIGNED LABEL>
lo

$$$$
>  <MOLECULE>
CNC(=C[N+](=O)[O-])NCCSCc1ccc(CN(C)C)o1

>  <ASSIGNED LABEL>
mid

$$$$
>  <MOLECULE>
Nc1ccc(S(=O)(=O)Nc2nccs2)cc1

>  <ASSIGNED LABEL>
lo

$$$$

# bin lookup: classify C/C(=N\C#N)N(C)Cc1ccc(Cl)nc1 by its first-order primary biodegradation rate constant k
lo

How about CCOc1ccccc1OCCN[C@H](C)Cc1ccc(OC)c(S(N)(=O)=O)c1 ?
mid

How about CC(C)(Oc1ccc(Cl)cc1)C(=O)O ?
mid

How about CC(C(=O)O)c1cccc(C(=O)c2ccccc2)c1 (stereo not given) ?
mid

###

experiment: first-order primary biodegradation rate constant k (sorption-corrected, fDis-corrected) (d-1); higher = faster biodegradation; conditions: river segment: Switzerland (CH) U_Contam; incubation temperature 17 °C
ASSAY METRIC: first-order primary biodegradation rate constant k
I only need the number, thanks.

>  <COMPOUND>
COc1ccc(C(CN(C)C)C2(O)CCCCC2)cc1 (stereo not given) [Venlafaxine]

>  <VALUE OBSERVED>
0.0953

$$$$
>  <COMPOUND>
CN(C)CCN1C(=O)c2ccccc2N(C)c2ccccc21 [Dibenzepin]

>  <VALUE OBSERVED>
0.0346

$$$$

Return reported first-order primary biodegradation rate constant k; argument: CCOc1ccccc1OCCN[C@H](C)Cc1ccc(OC)c(S(N)(=O)=O)c1 [Tamsulosin]
0.0824

How about CC(C)c1ccc(NC(=O)N(C)C)cc1 [Isoproturon] ?
0.0187

How about CC(C)NCC(O)COc1ccc(COCCOC(C)C)cc1 (stereo not given) [Bisoprolol] ?
0.473

###

test: first-order primary biodegradation rate constant k (sorption-corrected, fDis-corrected) (d-1); higher = faster biodegradation; conditions: river segment: Greece (EL) A_Contam; incubation temperature 19 °C
Range-based classes on measured first-order primary biodegradation rate constant k: lower bin: < 0.2; middle bin: ≥ 0.2 and < 0.4; upper bin: ≥ 0.4

Solved entries (count: 6):
>  <COMPOUND>
Cc1ccc2n[nH]nc2c1

>  <ASSIGNED LABEL>
middle bin

$$$$
>  <COMPOUND>
c1ccc([C@H]2CN3CCSC3=N2)cc1

>  <ASSIGNED LABEL>
lower bin

$$$$
>  <COMPOUND>
Cc1cccc(Nc2ccccc2C(=O)O)c1C

>  <ASSIGNED LABEL>
middle bin

$$$$
>  <COMPOUND>
CCNc1nc(Cl)nc(NC(C)C)n1

>  <ASSIGNED LABEL>
lower bin

$$$$
>  <COMPOUND>
CC1=CC(=O)NS(=O)(=O)O1

>  <ASSIGNED LABEL>
lower bin

$$$$
>  <COMPOUND>
Cc1cc(Cl)ccc1OC(C)C(=O)O (stereo not drawn)

>  <ASSIGNED LABEL>
lower bin

$$$$

# bin lookup: classify NC(=O)c1cn(Cc2c(F)cccc2F)nn1 [Rufinamide] by its first-order primary biodegradation rate constant k
upper bin

How about Cc1ccc(C)c(OCCCC(C)(C)C(=O)O)c1 ?
middle bin

How about COCC(C)N(C(=O)CCl)c1c(C)csc1C (stereo not drawn) ?
lower bin

How about C/C(=N\C#N)N(C)Cc1ccc(Cl)nc1 ?
lower bin

How about COC(=O)Nc1nc2ccccc2[nH]1 ?
lower bin
